- System: Plasmodium berghei
- measurement description: Antimalarial activity against exo-erythrocytic form of Plasmodium berghei infected in human HepG2 cells after 48 hrs
- Format: functional, organism-based
- condition context: HepG2, 48 h
readout: IC50

CCCCOc1ccc(C(=O)NOCCCCCC(=O)NO)cc1	2140 nM

Query: If you can, please state the reported IC50 value of CC(C)Oc1ccc(C(=O)NOCCCCCC(=O)NO)cc1 .
Reply: 1360 nM

Query: If you can, please state the reported IC50 value of CCCOc1ccc(C(=O)NOCCCCCC(=O)NO)cc1 .
Reply: 5290 nM

Query: If you can, please state the reported IC50 value of CCN(CC)CCCC(C)Nc1ccnc2cc(Cl)ccc12 (stereo not drawn) .
Reply: > 10000 nM

Query: If you can, please state the reported IC50 value of Cc1ccc(C(=O)NOCCCCCC(=O)NO)cc1 .
Reply: 1140 nM

Query: If you can, please state the reported IC50 value of O=C(CCCCCONC(=O)c1ccc(C(F)(F)F)cc1)NO .
Reply: 1900 nM

Query: If you can, please state the reported IC50 value of Cc1cccc(C(=O)NOCCCCCC(=O)NO)c1 .
Reply: 660 nM

Query: If you can, please state the reported IC50 value of CC(C)c1ccc(C(=O)NOCCCCCC(=O)NO)cc1 .
Reply: 1340 nM

---

- System: Plasmodium falciparum
- measurement description: Inhibition of histone deacetylase in Plasmodium falciparum nuclear lysates at 1 uM by fluorescence assay
Decision: inhibition compared against 70%; not below it gives true, below it gives false.

CC(/C=C/C(=O)NO)=C\[C@@H](C)C(=O)c1ccc(N(C)C)cc1	true

Query: Can O=C(CCCCCONC(=O)c1ccc(-c2ccccc2)cc1)NO be said to have inhibition at or above 70%?
Reply: true

---

Measured pIC50 of individual entries
- Test system: Plasmodium falciparum
- measurement description: Antimalarial activity against late stage gametocyte stage of Plasmodium falciparum NF54 after 72 hrs
- Format: functional, organism-based
- condition context: NF54, 72 h
Scale explanation: pIC50 corresponds to minus log10 of a concentration expressed in moles per litre.

Cc1cccc(C(=O)NOCCCCCC(=O)NO)c1	6.37
Cc1ccc(C(=O)NOCCCCCC(=O)NO)cc1C	6.60
O=C(CCCCCONC(=O)c1ccc(-c2ccccc2)cc1)NO	6.30
Cc1cc(C)cc(C(=O)NOCCCCCC(=O)NO)c1	6.48
O=C(CCCCCONC(=O)c1ccc(F)cc1)NO	5.70
COc1ccc2nc3cc(Cl)ccc3c(Nc3cc(CN4CCCC4)c(O)c(CN4CCCC4)c3)c2n1 [PYRONARIDINE]	5.57

Query: Recorded pIC50 for CCCCc1ccc(C(=O)NOCCCCCC(=O)NO)cc1 with Plasmodium falciparum, please?
Reply: 5.28

Query: Recorded pIC50 for O=C(CCCCCONC(=O)c1ccco1)NO with Plasmodium falciparum, please?
Reply: 6.00

---

- measurement description: Selectivity index, ratio of IC50 for human HepG2 cells to IC50 for late stage gametocyte stage of Plasmodium falciparum NF54
- Type: toxicity, cell-based
- condition context: read-out: Ratio IC50
readout: selectivity ratio
Lab note: record just the number, no unit beside it.

Solved cases below.
Cc1cccc(C(=O)NOCCCCCC(=O)NO)c1	11
Cc1cc(C)cc(C(=O)NOCCCCCC(=O)NO)c1	4
Cc1ccc(C(=O)NOCCCCCC(=O)NO)cc1C	13

# input for lookup
Query: If you can, please state the reported selectivity ratio value of O=C(CCCCCONC(=O)c1ccc(-c2ccccc2)cc1)NO .
Reply: 20

---

- System: Plasmodium falciparum
- measurement description: Inhibition of Plasmodium falciparum recombinant histone deacetylase1 using HDAC substrate 3 as substrate at 1 uM by fluorescence assay
readout: inhibition (%)
Report only the number, with the unit % understood.

Cc1ccc(C(=O)NOCCCCCC(=O)NO)cc1C	82.6

Query: If you can, please state the reported inhibition value of CC(C)c1ccc(C(=O)NOCCCCCC(=O)NO)cc1 .
Reply: 67.2

Query: If you can, please state the reported inhibition value of CC(C)Oc1ccc(C(=O)NOCCCCCC(=O)NO)cc1 .
Reply: 62.4

---

- measurement description: Selectivity index, ratio of IC50 for human HepG2 cells to IC50 for asexual blood stage of Plasmodium falciparum 3D7
hey, just use TRUE if measured selectivity ratio is less than 30, otherwise FALSE

A selection of reference data follows.
O=C(CCCCCONC(=O)c1ccc(C(F)(F)F)cc1)NO	FALSE
CCCCc1ccc(C(=O)NOCCCCCC(=O)NO)cc1	FALSE
CCCCCCOc1ccc(C(=O)NOCCCCCC(=O)NO)cc1	FALSE
CCCOc1ccccc1C(=O)NOCCCCCC(=O)NO	FALSE
Cc1ccc(C(=O)NOCCCCCC(=O)NO)cc1	FALSE

Query: Determine whether this molecule shows selectivity ratio lower than 30 (ties excluded): CCCCCOc1ccc(C(=O)NOCCCCCC(=O)NO)cc1
Reply: FALSE

Query: Determine whether this molecule shows selectivity ratio lower than 30 (ties excluded): O=C(CCCCCONC(=O)c1ccco1)NO
Reply: TRUE

Query: Determine whether this molecule shows selectivity ratio lower than 30 (ties excluded): CC(C)Oc1ccc(C(=O)NOCCCCCC(=O)NO)cc1
Reply: FALSE

---

- measurement description: Selectivity index, ratio of IC50 for human HepG2 cells to IC50 for exo-erythrocytic form of Plasmodium berghei
Decision: selectivity ratio compared against 7; not below it gives yes (1), below it gives no (0).

O=C(CCCCCONC(=O)c1ccc(-c2ccccc2)cc1)NO	no (0)
CCCOc1cccc(C(=O)NOCCCCCC(=O)NO)c1	yes (1)
Cc1ccc(C(=O)NOCCCCCC(=O)NO)cc1C	yes (1)

Query: Can CCCOc1ccc(C(=O)NOCCCCCC(=O)NO)cc1 be said to have selectivity ratio at or above 7?
Reply: no (0)

---

Measured pIC50 of individual entries
- measurement description: Cytotoxicity against erythrocytes (unknown origin)
- Assay type: cell-based
- condition context: Erythrocyte
Scale explanation: pIC50 corresponds to minus log10 of a concentration expressed in moles per litre.

CC(/C=C/C(=O)NO)=C\[C@@H](C)C(=O)c1ccc(N(C)C)cc1	6.70

# input for lookup
Query: If you can, please state the reported pIC50 value of O=C(/C=C/c1ccccc1)N[C@@H](CCCCCC(=O)NO)C(=O)Nc1cccc2cccnc12 .
Reply: 5.91

---

- measurement description: Cytotoxicity against human mammalian cells after 72 to 96 hrs by MTT assay
- Assay type: cell-based
readout: IC50

Query: If you can, please state the reported IC50 value of CCCCc1nc2cc(/C=C/C(=O)NO)ccc2n1CCN(CC)CC .
Reply: > 800 nM

---

- measurement description: Selectivity index, ratio of IC50 for human mammalian cells to IC50 for Plasmodium falciparum
- Assay type: toxicity
- condition context: mammalian cells (cell line not named), read-out: Ratio IC50
readout: selectivity ratio

Query: If you can, please state the reported selectivity ratio value of CCCCc1nc2cc(/C=C/C(=O)NO)ccc2n1CCN(CC)CC [PRACINOSTAT] .
Reply: > 4

---

- Tested on: Plasmodium falciparum 3D7
- measurement description: Inhibition of HDAC in Plasmodium falciparum 3D7 trophozoites assessed as histone H3 hyperacetylation level at 500 nM after 3 hrs by Western blotting analysis relative to control
The source made the active and inactive calls. The rule behind the calls is not given here.
readout: inhibition

Solved cases below.
CC(/C=C/C(=O)NO)=C\[C@@H](C)C(=O)c1ccc(N(C)C)cc1	Active
CC(C)c1ccc(C(=O)NOCCCCCC(=O)NO)cc1	Active
CC(C)Oc1ccc(C(=O)NOCCCCCC(=O)NO)cc1	Active
Cc1ccc(C(=O)NOCCCCCC(=O)NO)cc1C	Active
CC(C)(C)c1ccc(C(=O)NOCCCCCC(=O)NO)cc1	Active
O=C(CCCCCONC(=O)c1ccc(-c2ccccc2)cc1)NO	Active
Cc1cccc(C(=O)NOCCCCCC(=O)NO)c1	Active
Cc1cc(C)cc(C(=O)NOCCCCCC(=O)NO)c1	Active

# input for lookup
Query: If you can, please state the reported inhibition value of CCCCOc1ccc(C(=O)NOCCCCCC(=O)NO)cc1 .
Reply: Active

---

- System: Plasmodium falciparum
- measurement description: Inhibition of Plasmodium falciparum recombinant histone deacetylase1 using HDAC substrate 3 as substrate at 1 uM by fluorescence assay
readout: inhibition (%)
Report only the number, with the unit % understood.

Solved cases below.
CCCCOc1ccc(C(=O)NOCCCCCC(=O)NO)cc1	72.1
CC(/C=C/C(=O)NO)=C\[C@@H](C)C(=O)c1ccc(N(C)C)cc1	93.3
O=C(CCCCCONC(=O)c1ccc(-c2ccccc2)cc1)NO	64.2
Cc1cccc(C(=O)NOCCCCCC(=O)NO)c1	75.5
CC(C)(C)c1ccc(C(=O)NOCCCCCC(=O)NO)cc1	68.6

# input for lookup
Query: If you can, please state the reported inhibition value of Cc1cc(C)cc(C(=O)NOCCCCCC(=O)NO)c1 .
Reply: 73.8
